Target: T1, wild type full length EGFR purified from A431 cells (human, UniProt P00533 25-1210)
T1 construct: mature; Bought; coated on ELISA wells; also called full length EGFR receptor antigen; Sigma E3641
Assay: competition ELISA, competitor Ab-10
Set-up: concentration or dose not given beside the values
Task for the reader: assign each of the following binders its reported % inhibition.
Numbers only, in %.

antibody 1208 (antibody, human IgG1, kappa, V domains shown, Chimeric IgG1 kappa; also called clone 1208) VH: EVQLVESGGGLVKPGGSLKLSCAASGFAFSSYDMSWVRQTPEKRLEWVAYIGSGDDNTHYPDSVKGRFTISRHNAKNTLYLQMSSLKSEDTAMYYCARQKYGNYGDTMDYWGQGTSVTVSS VL: DVVMTQTPLSLPVSLGDQASISCRSSQSLVHSNGNTYLHWYLQKPGQSPKLLIYKVSNRFSGVPDRFSGSGSGTDFTLKISRVEAEDLGVYFCSQSTHVPTFGGGTKLEIKR    89

Look at each binder and report its % inhibition.
1. antibody 1257 (antibody, human IgG1, kappa, V domains shown, Chimeric IgG1 kappa) VH: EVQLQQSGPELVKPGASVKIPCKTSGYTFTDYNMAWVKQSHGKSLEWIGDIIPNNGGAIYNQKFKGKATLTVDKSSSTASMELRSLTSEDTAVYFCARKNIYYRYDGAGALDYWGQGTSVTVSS VL: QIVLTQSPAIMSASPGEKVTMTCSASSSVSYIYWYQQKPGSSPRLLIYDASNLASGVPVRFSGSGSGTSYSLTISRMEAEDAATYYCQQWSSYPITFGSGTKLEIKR
2. antibody 1308 (antibody, human IgG1, kappa, V domains shown, Chimeric IgG1 kappa) VH: EVQLQQSGAELVRPGSSVKISCKASGYAFSSYWMNWVRQRPGQGLEWIGQIYPGDGDTNYNGKFKGRATLTANKSSSTAYMQLSSLTSEDSAVYFCARRASSLYDVYPYYFDYWGQGTTLTVSS VL: DIQMTQTTSSLSASLGDRVTISCRASQDISNYLNWYQQKPDGTVKVLIYYTSRLHSGVPSRFSGSGSGTDYSLTISNLEQEDIATYFCQQGNTLPYTFGGGTKLEIKR

-- reply
33
12
